test: Cytotoxicity assay (Cell Counting Kit-8) in A549 cells; assay type: cell-based; conditions: human, Cell Counting Kit-8, read-out: CC50 (50% cytotoxic concentration)
parameter-measured: CC50 at 48 h (µM)

• C=C[C@H]1C[N@@]2CC[C@H]1C[C@H]2[C@H](O)c1ccnc2ccc(OC)cc12 = 45.8
